- measurement target: T1, hPD-1-Fc (human, UniProt Q15116 25-167)
- T1 construct: domain: IgV domain; also called human PD-1-Fc; not shown: human IgG1 Fc
- T1 sequence (Q15116 25-167 limits assumed): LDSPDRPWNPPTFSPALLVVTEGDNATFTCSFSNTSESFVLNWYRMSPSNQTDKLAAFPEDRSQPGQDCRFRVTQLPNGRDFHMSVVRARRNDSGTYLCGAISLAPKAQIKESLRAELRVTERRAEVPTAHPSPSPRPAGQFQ
- experimental protocol: blocking ELISA, PD-1 to PD-L2
property: Inhibition, % at 100 nM (%)
One number for each entry, in %.

Below are worked cases with known answers.
38B2 (antibody, V domains shown, 24H9 derivative, IgG; also called 780_54; hPD1 Ab (38B2)) VH: EVQLLESGGGLVQPGGSLRLSCAASGFTFSSYWMSWVRQAPGKGLEWVSAISGSGGSTYYADSVKGRFTISRDNSKNTLYLQMNSLRAEDTAVYYCASSPLQWVDVWGQGTTVTVSS VL: DIQMTQSPSSLSASVGDRVTITCRASESISSWLAWYQQKPGKAPKLLIYDASSLESGVPSRFSGSGSGTDFTLTISSLQPEDFATYYCQQGDSFPFTFGQGTKLEIK : 95.1
33C4 (antibody, V domains shown, also called 780_39) VH: QVQLVQSGAEVKKPGSSVKVSCKASGGTFSSSVISWVRQAPGQGLEWMGGIIPIFGTANYAQKFQGRVTITADESTSTAYMELSSLRSEDTAVYYCAREGLGCSGGSCYSGYYYGMDVWGQGTTVTVSS VL: DIVMTQSPLSLPVTPGEPASISCRSSQSLLHSNGYNYLDWYLQKPGQSPQLLIYEASSLHTGVPDRFSGSGSGTDFTLKISRVEAEDVGVYYCMQGSHWPYTFGQGTKLEIK : 94.6
38A6 (antibody, V domains shown, also called 780_46) VH: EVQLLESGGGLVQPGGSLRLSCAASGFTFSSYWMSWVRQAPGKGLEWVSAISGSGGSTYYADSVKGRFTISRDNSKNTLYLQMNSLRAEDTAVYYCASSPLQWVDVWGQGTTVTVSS VL: DIQMTQSPSSLSASVGDRVTITCRASQDISRWLGWYQQKPGKAPKLLIYAASTLQSGVPSRFSGSGSGTDFTLTISSLQPEDFATYYCQQANSFPFTFGPGTKLEIK : 94.8

31B1 (antibody, V domains shown, also called 780_38; 33B1 and 31B2 (apparent misprints)) VH: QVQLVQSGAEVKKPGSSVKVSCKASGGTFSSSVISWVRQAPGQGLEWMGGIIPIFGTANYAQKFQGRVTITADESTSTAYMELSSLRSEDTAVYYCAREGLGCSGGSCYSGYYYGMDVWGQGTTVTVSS VL: DIVMTQSPLSLPVTPGEPASISCRSSQSLLHSNGYNYLDWYLQKPGQSPQLLIYEASSLHSGVPDRFSGSGSGTDFTLKISRVEAEDVGVYYCMQGTHWPYTFGQGTKVEIK has a reported Inhibition, % at 100 nM of 94.5

Just for reference, patent US20230416363A1 is where these values come from.
